biological target: Prostaglandin E2 receptor EP3 subtype (Homo sapiens); assay: Antagonist activity at human EP3 receptor expressed in CHO cells assessed as inhibition of PGE2-induced increase in intracellular calcium concentration after 1 hr by FLIPR assay; format: functional, cell-based
MEASURED_PROPERTY: Ki (nM)

Consider the following illustrative entries.
O=C1NC(=O)C(c2ccc(-c3ccc4ccccc4c3)[nH]c2=O)(C2CC2)O1 (stereo not given) : 50.1
O=C1NC(=O)C(c2ccc(-c3ccc4ccccc4c3)[nH]c2=O)(C2CCCCC2)O1 (stereo not given) : 7.94
O=C1NC(=O)C(c2ccccc2)(c2ccc(-c3ccc4ccccc4c3)[nH]c2=O)O1 (stereo not given) : 31.6
CC(C)C1(c2cc(Cl)c(-c3ccc4ccccc4c3)[nH]c2=O)OC(=O)NC1=O (stereo not given) : 50.1
CC(C)[C@@]1(c2ccc(-c3ccc4ccccc4c3)[nH]c2=O)OC(=O)NC1=O : 7.94

P: CC1(c2ccc(-c3ccc4ccccc4c3)cc2O)OC(=O)NC1=O (stereo not given)
Q: O=C1NC(=O)C(c2ccc(-c3ccc4ccccc4c3)[nH]c2=O)(C(F)(F)F)O1 (stereo not given)
R: CN1C(=O)OC(C)(c2ccc(-c3ccc4ccccc4c3)[nH]c2=O)C1=O (stereo not given)
Please rank these molecules by Ki in descending order. Please reply with the labels ordered as requested. Many thanks. P, R, Q

----------
Biological target: Prostaglandin E2 receptor EP3 subtype (Homo sapiens, UniProt P43115)
Sequence (P43115 whole entry): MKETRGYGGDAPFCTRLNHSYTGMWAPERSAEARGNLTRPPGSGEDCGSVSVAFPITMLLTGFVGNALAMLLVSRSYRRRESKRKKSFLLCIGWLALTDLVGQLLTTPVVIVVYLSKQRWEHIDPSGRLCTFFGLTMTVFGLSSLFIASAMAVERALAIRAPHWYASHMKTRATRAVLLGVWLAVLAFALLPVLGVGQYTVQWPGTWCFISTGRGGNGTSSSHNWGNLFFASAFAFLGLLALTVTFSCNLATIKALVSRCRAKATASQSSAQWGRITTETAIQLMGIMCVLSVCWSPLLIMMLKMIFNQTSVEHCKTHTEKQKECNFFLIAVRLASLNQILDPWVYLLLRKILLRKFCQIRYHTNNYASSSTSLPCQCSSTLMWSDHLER
Assay: Antagonist activity at human EP3 receptor expressed in CHO cells assessed as inhibition of PGE2-induced increase in intracellular calcium concentration after 1 hr by FLIPR assay
pKi: −log10 of the molar value.
MEASURED_PROPERTY: pKi

Some solved cases for reference:
CC(C)[C@]1(c2ccc(-c3ccc4ccccc4c3)[nH]c2=O)OC(=O)NC1=O : 7.70
O=C1NC(=O)C(Cc2ccccc2)(c2ccc(-c3ccc4ccccc4c3)[nH]c2=O)O1 (stereo not given) : 7.80
CC(C)C1(c2c[nH]c(-c3ccc4ccccc4c3)cc2=O)OC(=O)NC1=O (stereo not given) : 6.10
CC(C)C1(c2cc(Br)c(-c3ccc4ccccc4c3)[nH]c2=O)OC(=O)NC1=O (stereo not given) : 7.40

a: CC(C)C1(c2cc(C(F)(F)F)c(-c3ccc4ccccc4c3)[nH]c2=O)OC(=O)NC1=O (stereo not given)
b: O=C1NC(=O)C(c2ccc(-c3ccc4ccccc4c3)[nH]c2=O)(C2CCOCC2)O1 (stereo not given)
c: CC(C)C1(c2cc(-c3ccccc3)c(-c3ccc4ccccc4c3)[nH]c2=O)OC(=O)NC1=O (stereo not given)
Given 3 compounds, produce a descending ranking by pKi. Returns: the labels listed in the requested order. b, a, c
(b: 6.70, a: 6.20, c: 5.60)

P: CC1(c2ccc(-c3ccc4ccccc4c3)[nH]c2=O)OC(=O)NC1=O (stereo not given)
Q: CC1(c2ccc(-c3ccc4ccccc4c3)[nH]c2=O)CNC(=O)N1 (stereo not given)
R: COc1cc(-c2ccc3ccccc3c2)ccc1C1(C)OC(=O)NC1=O (stereo not given)
S: CC1(c2ccc(-c3ccc4ccccc4c3)[nH]c2=O)NC(=O)NC1=O (stereo not given)
// ascending sort on recorded pKi Provide the ranking by listing each label in its place in the requested order. R, S, Q, P

----------
target: Prostaglandin E2 receptor EP3 subtype (Homo sapiens); experiment: Antagonist activity at human EP3 receptor expressed in CHO cells assessed as inhibition of PGE2-induced increase in intracellular calcium concentration after 1 hr by FLIPR assay
pKi: −log10 of the molar value.
MEASURED_PROPERTY: pKi

O=C1NC(=O)C(c2ccc(-c3ccc4ccccc4c3)[nH]c2=O)(C2CCCC2)O1 (centres undefined) : 8.10

P: Cc1cc(C2(C(C)C)OC(=O)NC2=O)c(=O)[nH]c1-c1ccc2ccccc2c1 (centres undefined)
Q: CC1(c2ccc(-c3ccc4ccccc4c3)[nH]c2=O)CNC(=O)O1 (centres undefined)
// task: argmin of pKi over [ P , Q ] Answer = label. Q
(Q: 7.10, P: 8.20)
